# testDetails: Inhibitory activity of compound was evaluated against urokinase-S-2444
# conditionContext: read-out: IC50
readout: pIC50
Scale: pIC50 equals -log10([C]), with [C] in mol/L.

Q: Need pIC50, item Cc1nc(C)c(CCCNC(=O)C(Cc2ccc(OC(=O)OCc3ccccc3Br)cc2)NC(=O)[C@H]2CC[C@H](CN)CC2)nc1O (some centres not stated)
A: 4.27

Q: Please give the measured pIC50 for this molecule: NC[C@H]1CC[C@H](C(=O)NC(Cc2ccccc2)C(=O)Nc2ccc(CC(=O)O)cc2)CC1 (some centres not stated)
A: 3.46

Q: Find the recorded pIC50 belonging to CCCCCCCCNC(=O)C(Cc1ccc(OCc2ccncc2)cc1)NC(=O)[C@H]1CC[C@H](CN)CC1 (some centres not stated) and report it.
A: 5.28

Q: Entry NC[C@H]1CC[C@H](C(=O)NC(Cc2ccc(Oc3ncccn3)cc2)C(=O)Nc2cccc(C(=O)O)c2)CC1 (some centres not stated) : reported pIC50 = ?
A: 3.19

Q: I would be grateful if you could share the reported pIC50 for CC(C)CCNC(=O)C(Cc1ccc(OC(=O)OCc2ccccc2Br)cc1)NC(=O)[C@H]1CC[C@H](CN)CC1 (some centres not stated) .
A: 3.59
